System: IL-6-GFP PC-9
PROTOCOL_NOTES: cell viability (CCK-8 OD) relative to DMSO control (fraction of control); higher = more viable cells
MEASUREMENT_CONTEXT: compound concentration: 10 uM; treatment time: 48 h
Listing: cell viability of selected compounds
Lab note: jot the number down without any unit.

Guide cases for cell viability, answers given:
CCC(=O)NS(=O)(=O)c1ccc(-c2c(-c3ccccc3)noc2C)cc1 :: 1.26
CCCCC1(COC(=O)CCC(=O)O)C(=O)N(c2ccccc2)N(c2ccccc2)C1=O :: 1.07
Nc1nc(N)c2nc(-c3ccccc3)c(N)nc2n1 :: 0.842

Input: cell viability for CC1(C)OC2CC3C4CCC5=CC(=O)C=CC5(C)C4(F)C(O)CC3(C)C2(C(=O)CO)O1 (stereo not given) [Triamcinolone Acetonide] ?
Output: 0.902

Input: cell viability for CC(C)(O)c1ccccc1CCC(SCC1(CC(=O)O)CC1)c1cccc(/C=C/c2ccc3ccc(Cl)cc3n2)c1 (stereo not given) ?
Output: 0.934

Input: cell viability for `O=c1oc2cc(O)ccc2s1` ?
Output: 1.12

Input: cell viability for `O=C(/C=C/C=C/c1ccc2c(c1)OCO2)N1CCCCC1` ?
Output: 1.47

Input: cell viability for COc1nc(N)nc2c1ncn2C1OC(CO)C(O)C1O (stereo not given) ?
Output: 0.758

Input: cell viability for `Cc1nnc(C(=O)NC(C)(C)c2nc(C(=O)NCc3ccc(F)cc3)c(O)c(=O)n2C)o1` ?
Output: 1.39

Input: cell viability for `COc1c2occc2cc2ccc(=O)oc12` ?
Output: 0.839

Input: cell viability for O=C(CCCCCCC(=O)Nc1ccccc1)NO [Vorinostat (SAHA, MK0683)] ?
Output: 0.418

Input: cell viability for `CC1(C)CCC(C)(C)c2cc(NC(=O)c3ccc(C(=O)O)cc3)ccc21` ?
Output: 1.28

Input: cell viability for `Cc1ccc(Nc2c(F)cccc2Cl)c(CC(=O)O)c1` ?
Output: 0.853

Input: cell viability for Cc1cnc(C(=O)NC2CCCCC/C=C\C3CC3(C(=O)NS(=O)(=O)C3CC3)NC(=O)C3CC(Oc4nc5ccccc5c5ccccc45)CN3C2=O)cn1 (stereo not given) ?
Output: 0.874

Input: cell viability for O=C1CCCC2C3CCC[N+]4([O-])CCCC(CN12)C34 (stereo not given) ?
Output: 1.33

Input: cell viability for `CONC(=O)Nc1ccc(-c2sc3c(c2CN(C)C)c(=O)n(-c2ccc(OC)nn2)c(=O)n3Cc2c(F)cccc2F)cc1` ?
Output: 1.01

Input: cell viability for `COc1c2ccoc2cc2oc(=O)ccc12` ?
Output: 0.838
